Target: NMDAR2B expressing HEK cell membranes (Homo sapiens, UniProt Q13224)
Construct: expressed in transfected cells; host or cells: HEK cells (membrane extract)
Sequence (Q13224 27-1484, other chains not shown): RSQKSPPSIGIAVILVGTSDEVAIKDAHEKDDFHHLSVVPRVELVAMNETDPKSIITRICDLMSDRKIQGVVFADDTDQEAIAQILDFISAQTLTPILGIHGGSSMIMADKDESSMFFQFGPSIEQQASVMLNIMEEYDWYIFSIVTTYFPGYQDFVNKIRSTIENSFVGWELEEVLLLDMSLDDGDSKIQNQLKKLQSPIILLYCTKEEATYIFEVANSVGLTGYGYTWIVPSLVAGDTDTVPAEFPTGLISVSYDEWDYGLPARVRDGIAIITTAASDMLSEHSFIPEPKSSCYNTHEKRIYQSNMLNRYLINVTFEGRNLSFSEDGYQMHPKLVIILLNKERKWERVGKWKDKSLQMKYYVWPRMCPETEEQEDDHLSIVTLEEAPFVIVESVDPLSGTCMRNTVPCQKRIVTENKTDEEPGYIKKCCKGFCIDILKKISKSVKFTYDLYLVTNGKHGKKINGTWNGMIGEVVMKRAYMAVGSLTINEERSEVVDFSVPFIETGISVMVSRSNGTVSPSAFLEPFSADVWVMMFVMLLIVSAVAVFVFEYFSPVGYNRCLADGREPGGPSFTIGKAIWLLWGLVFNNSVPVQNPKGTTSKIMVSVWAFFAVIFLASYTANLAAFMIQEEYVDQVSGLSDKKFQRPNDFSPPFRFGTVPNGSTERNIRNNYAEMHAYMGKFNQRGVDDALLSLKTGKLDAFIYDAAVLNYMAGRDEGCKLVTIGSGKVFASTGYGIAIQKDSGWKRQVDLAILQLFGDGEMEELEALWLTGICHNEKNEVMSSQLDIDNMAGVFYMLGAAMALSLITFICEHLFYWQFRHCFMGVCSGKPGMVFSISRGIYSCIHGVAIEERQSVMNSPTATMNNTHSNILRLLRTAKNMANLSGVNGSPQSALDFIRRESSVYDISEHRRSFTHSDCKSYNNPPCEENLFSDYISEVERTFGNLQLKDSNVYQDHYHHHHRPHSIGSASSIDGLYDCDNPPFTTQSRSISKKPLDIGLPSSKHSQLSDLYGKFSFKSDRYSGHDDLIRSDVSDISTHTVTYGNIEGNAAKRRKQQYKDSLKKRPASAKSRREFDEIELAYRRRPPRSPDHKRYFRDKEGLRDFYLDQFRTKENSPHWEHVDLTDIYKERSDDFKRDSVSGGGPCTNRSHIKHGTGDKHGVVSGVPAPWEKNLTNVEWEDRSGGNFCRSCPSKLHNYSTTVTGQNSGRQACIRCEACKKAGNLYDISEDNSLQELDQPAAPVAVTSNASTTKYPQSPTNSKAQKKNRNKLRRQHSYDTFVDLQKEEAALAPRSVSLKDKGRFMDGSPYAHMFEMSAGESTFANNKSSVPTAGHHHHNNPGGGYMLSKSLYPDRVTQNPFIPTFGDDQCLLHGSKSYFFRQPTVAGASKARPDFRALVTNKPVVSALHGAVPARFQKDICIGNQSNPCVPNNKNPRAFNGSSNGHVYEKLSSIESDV
Assay: NMDAR agonist assay, [3H]MK-801 binding, NMDAR2B
Type: biochemical
Details: 50 μM glutamate; relative to 1 mM glycine
value.kind: NMDAR2B: % maximal [3H]MK-801 binding relative to 1 mM glycine

{"columns": ["compound", "reported.measurement"],
 "data": [
  ["O=C1NCC12CCC1(CNC1=O)N2 (single isomer, unassigned) [AJ]", "+ (<100%=+)"],
  ["CNC(=O)C(C(C)O)N(C)CC1CCC2(CN(OCc3ccccc3)C2=O)N1 (single isomer, unassigned) [CX]", "++ (>100%=++)"],
  ["C[C@@H](O)[C@H](NC(=O)C1CCC2(CNC2=O)N1)C(N)=O (single isomer, unassigned) [AQ-2]", "+ (<100%=+)"],
  ["O=C1NCC12CN(Cc1ccccc1)C1(CNC1=O)C2 (single isomer, unassigned) [DQ]", "+ (<100%=+)"]
]}

# returns recorded NMDAR2B: % maximal [3H]MK-801 binding relative to 1 mM glycine (system: NMDAR2B expressing HEK cell membranes (Homo sapiens, UniProt Q13224)) for CC(C)(C)OC(=O)N1CC2(CNC2=O)CC12CNC2=O (stereo not shown) [AY-1]
+ (<100%=+)

---

Examples of compounds with documented EC50 follow.
Biological target: NMDAR2A expressing HEK cell membranes (Homo sapiens, UniProt Q05586+Q12879)
Construct: expressed in transfected cells; host or cells: HEK cells (membrane extract)
Sequence (Q12879 23-1464, other chains not shown): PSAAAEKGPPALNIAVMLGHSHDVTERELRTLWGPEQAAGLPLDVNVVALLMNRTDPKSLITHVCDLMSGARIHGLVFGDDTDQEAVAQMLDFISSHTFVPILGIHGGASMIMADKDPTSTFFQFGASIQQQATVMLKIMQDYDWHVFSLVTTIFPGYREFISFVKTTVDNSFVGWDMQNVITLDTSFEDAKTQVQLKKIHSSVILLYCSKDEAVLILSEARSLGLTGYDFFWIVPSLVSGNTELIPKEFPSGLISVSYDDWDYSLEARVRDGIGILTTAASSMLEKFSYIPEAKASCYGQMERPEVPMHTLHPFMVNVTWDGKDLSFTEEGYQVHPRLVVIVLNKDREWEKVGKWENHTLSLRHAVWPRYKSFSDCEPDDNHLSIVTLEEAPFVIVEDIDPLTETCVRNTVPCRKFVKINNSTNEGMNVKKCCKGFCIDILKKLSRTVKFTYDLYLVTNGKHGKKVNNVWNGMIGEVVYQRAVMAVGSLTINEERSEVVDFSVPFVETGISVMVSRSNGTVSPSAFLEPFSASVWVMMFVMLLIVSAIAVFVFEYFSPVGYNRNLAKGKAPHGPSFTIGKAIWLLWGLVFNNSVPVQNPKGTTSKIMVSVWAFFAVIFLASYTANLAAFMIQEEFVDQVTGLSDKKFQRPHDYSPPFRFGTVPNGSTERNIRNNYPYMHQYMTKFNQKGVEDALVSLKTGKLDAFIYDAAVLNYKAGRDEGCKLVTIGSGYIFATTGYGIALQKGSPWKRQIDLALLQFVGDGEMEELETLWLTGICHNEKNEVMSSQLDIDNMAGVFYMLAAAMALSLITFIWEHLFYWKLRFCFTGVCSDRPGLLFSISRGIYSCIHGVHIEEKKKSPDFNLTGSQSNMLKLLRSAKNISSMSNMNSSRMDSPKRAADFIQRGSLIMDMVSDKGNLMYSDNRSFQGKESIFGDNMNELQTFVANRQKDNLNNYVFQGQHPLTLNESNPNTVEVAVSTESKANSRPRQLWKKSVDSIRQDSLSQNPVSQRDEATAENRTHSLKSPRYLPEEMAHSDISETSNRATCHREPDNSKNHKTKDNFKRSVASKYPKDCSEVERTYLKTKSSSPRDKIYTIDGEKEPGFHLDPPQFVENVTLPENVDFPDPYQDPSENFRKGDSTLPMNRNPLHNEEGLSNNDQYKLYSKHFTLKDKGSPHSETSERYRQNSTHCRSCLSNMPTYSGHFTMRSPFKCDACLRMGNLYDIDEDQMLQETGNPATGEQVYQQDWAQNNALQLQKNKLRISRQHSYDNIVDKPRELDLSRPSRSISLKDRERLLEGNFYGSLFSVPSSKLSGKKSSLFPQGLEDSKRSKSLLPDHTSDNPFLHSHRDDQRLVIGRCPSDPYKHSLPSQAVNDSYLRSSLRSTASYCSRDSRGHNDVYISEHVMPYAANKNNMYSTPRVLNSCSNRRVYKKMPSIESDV
Experiment: NMDAR agonist assay, [3H]MK-801 binding, NMDAR2A
Assay type: biochemical
Details: 50 μM glutamate; [3H]MK-801 binding; read-out: NMDAR2A: log EC50 (converted)

{"columns": ["compound", "study.system", "EC50"],
 "data": [
  ["O=C1NCC12CCC1(CNC1=O)N2Cc1ccc(F)cc1 (single isomer, unassigned)", "NMDAR2A expressing HEK cell membranes (Homo sapiens, UniProt Q05586+Q12879)", "< 1 nM"]
]}

Please give the measured EC50 for this compound: CC(O)C(NCC1CCC2(CN(OCc3ccccc3)C2=O)N1)C(N)=O (single isomer, unassigned) [CL]
< 1 nM

Look up EC50: C[C@@H](O)[C@@H](C(=O)N(C)C)N(C)CC1CCC2(CN(OCc3ccccc3)C2=O)N1C(=O)OC(C)(C)C (some centres unmarked)
< 1 nM

Fill in the blank: the reported EC50 of NC(=O)C1CCC2(CNC2=O)N1 (single isomer, unassigned) is ____.
< 1 nM

Any idea what EC50 was measured for CC(C)(C)OC(=O)N1CC2(CN(OCc3ccccc3)C2=O)CC12CN(OCc1ccccc1)C2=O (single isomer, unassigned) [AW] ?
< 1 nM

---

Biological target: NMDAR2D expressing HEK cell membranes (Homo sapiens, UniProt O15399+Q05586)
Construct: expressed in transfected cells; host or cells: HEK cells (membrane extract)
Sequence (O15399 28-1336, other chains not shown): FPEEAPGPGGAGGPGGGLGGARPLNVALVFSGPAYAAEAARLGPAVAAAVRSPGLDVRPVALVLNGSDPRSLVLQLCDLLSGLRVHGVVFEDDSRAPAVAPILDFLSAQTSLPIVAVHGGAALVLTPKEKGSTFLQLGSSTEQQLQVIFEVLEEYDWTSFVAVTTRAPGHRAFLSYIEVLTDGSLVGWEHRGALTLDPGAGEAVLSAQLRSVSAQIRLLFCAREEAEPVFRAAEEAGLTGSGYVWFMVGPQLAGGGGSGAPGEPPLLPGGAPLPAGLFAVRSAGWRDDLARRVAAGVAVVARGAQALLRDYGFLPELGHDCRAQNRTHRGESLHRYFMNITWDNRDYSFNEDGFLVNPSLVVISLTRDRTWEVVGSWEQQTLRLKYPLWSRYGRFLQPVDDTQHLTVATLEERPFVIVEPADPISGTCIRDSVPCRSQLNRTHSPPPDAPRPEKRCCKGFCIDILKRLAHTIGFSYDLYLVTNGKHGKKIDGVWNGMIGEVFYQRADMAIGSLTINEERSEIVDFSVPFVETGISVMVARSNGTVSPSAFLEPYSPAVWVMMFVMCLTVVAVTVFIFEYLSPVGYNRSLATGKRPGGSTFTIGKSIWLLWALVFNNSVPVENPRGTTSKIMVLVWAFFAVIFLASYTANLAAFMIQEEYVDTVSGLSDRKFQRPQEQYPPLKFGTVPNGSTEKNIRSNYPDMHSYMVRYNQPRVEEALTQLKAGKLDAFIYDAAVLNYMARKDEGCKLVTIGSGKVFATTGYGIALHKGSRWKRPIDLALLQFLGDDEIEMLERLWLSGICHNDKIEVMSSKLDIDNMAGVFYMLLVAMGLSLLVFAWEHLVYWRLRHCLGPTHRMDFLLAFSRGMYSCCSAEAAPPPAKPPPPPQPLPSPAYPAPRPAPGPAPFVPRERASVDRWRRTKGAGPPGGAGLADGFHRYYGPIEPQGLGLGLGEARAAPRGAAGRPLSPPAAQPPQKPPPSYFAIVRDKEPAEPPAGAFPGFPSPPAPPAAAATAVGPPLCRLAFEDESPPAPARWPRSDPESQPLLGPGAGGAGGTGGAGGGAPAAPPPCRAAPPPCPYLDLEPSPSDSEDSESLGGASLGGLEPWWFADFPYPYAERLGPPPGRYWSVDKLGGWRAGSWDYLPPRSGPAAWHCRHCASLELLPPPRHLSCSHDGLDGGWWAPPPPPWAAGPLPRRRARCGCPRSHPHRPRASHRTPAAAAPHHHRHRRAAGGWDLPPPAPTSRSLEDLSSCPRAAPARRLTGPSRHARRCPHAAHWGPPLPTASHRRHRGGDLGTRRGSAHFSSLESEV
Assay: NMDAR agonist assay, [3H]MK-801 binding, NMDAR2D
Format: biochemical
Settings: 50 μM glutamate; [3H]MK-801 binding; read-out: NMDAR2D: log EC50 (converted)
Listed next: entries and their corresponding EC50.

Here's what some known entries look like.
{"columns": ["molecule", "reported.measurement"],
 "data": [
  ["CC(C)CN1C(C(=O)N[C@H](C(N)=O)[C@@H](C)O)CCC12CNC2=O (single isomer, unassigned)", "< 1 nM"],
  ["CC(C)C(=O)N1C2(CCC13CNC3=O)CNC2=O (single isomer, unassigned)", "< 1 nM"],
  ["CC(C)(C)OC(=O)N1CC2(CN(OCc3ccccc3)C2=O)CC12CN(OCc1ccccc1)C2=O (single isomer, unassigned)", "< 1 nM"],
  ["O=C1NCC12CCC1(CNC1=O)N2Cc1ccccc1 (single isomer, unassigned) [AC-2]", "< 1 nM"],
  ["C[C@@H](O)[C@H](NC(=O)C1CCC2(CNC2=O)N1Cc1ccccc1)C(N)=O (single isomer, unassigned)", "< 1 nM"],
  ["O=C1NCC12CCC1(CNC1=O)N2Cc1ccccc1 (single isomer, unassigned) [AC-3]", "> 100 nM"]
]}

What value of EC50 on NMDAR2D expressing HEK cell membranes (Homo sapiens, UniProt O15399+Q05586) does C[C@@H](O)[C@@H](C(N)=O)N1CC2(CCC3(CN([C@H](C(N)=O)[C@@H](C)O)C3=O)N2C(=O)OC(C)(C)C)C1=O (stereo partly drawn) have?
> 100 nM

Report EC50 for C[C@@H](O)[C@H](NC(=O)C1CCC2(CNC2=O)N1)C(N)=O (single isomer, unassigned) tested on NMDAR2D expressing HEK cell membranes (Homo sapiens, UniProt O15399+Q05586).
< 1 nM

Entry CC(C)(C)OC(=O)N1C(C(N)=O)CCC12CNC2=O (single isomer, unassigned) , system NMDAR2D expressing HEK cell membranes (Homo sapiens, UniProt O15399+Q05586): what EC50 was measured?
< 1 nM

---

Assay: Oral pharmacokinetics (plasma, brain, CSF)
Assay type: in vivo
Conditions: rat, plasma, po; Sprague Dawley rats, per os, 10 mg/kg
value.kind: AUC(0-t)

// below: answered molecules
{"columns": ["molecule", "reported.measurement"],
 "data": [
  ["CC(C)CN1[C@]2(CC[C@]13CNC3=O)CNC2=O", "16100 ng·h/mL"],
  ["O=C1NCC12CCC1(CNC1=O)N2 (single isomer, unassigned)", "2060 ng·h/mL"]
]}

Give its AUC(0-t) value. Item: "CC(C)CN1[C@@]2(CC[C@@]13CNC3=O)CNC2=O"
19300 ng·h/mL

---

Target: NMDAR2B expressing HEK cell membranes (Homo sapiens, UniProt Q13224)
Construct: expressed in transfected cells; host or cells: HEK cells (membrane extract)
Experiment: NMDAR agonist assay, [3H]MK-801 binding, NMDAR2B
Assay type: biochemical
Settings: 50 μM glutamate; relative to 1 mM glycine
value.kind: NMDAR2B: % maximal [3H]MK-801 binding relative to 1 mM glycine

Past entries and their recorded results:
{"columns": ["compound", "reported.measurement"],
 "data": [
  ["O=C1NCC12CN(Cc1ccccc1)C1(CNC1=O)C2 (single isomer, unassigned) [DP]", "++ (>100%=++)"],
  ["CC(O)C(C(N)=O)N(C)CC1CCC2(CNC2=O)N1 (single isomer, unassigned) [CV]", "++ (>100%=++)"],
  ["C[C@@H](O)[C@H](NC1CN(C(=O)OC(C)(C)C)C2(CNC2=O)C1)C(N)=O (single isomer, unassigned) [CG]", "− (−=0)"],
  ["O=C1NCC12CCC1(CNC1=O)N2Cc1ccccc1 (single isomer, unassigned) [AC-3]", "+ (<100%=+)"],
  ["CC(C)(C)OC(=O)N1C(C(N)=O)CCC12CNC2=O (single isomer, unassigned) [BE]", "− (−=0)"]
]}

Fill blank: measured NMDAR2B: % maximal [3H]MK-801 binding relative to 1 mM glycine of the compound CN1C2(CCC13CNC3=O)CNC2=O (single isomer, unassigned) [AB-2] is ____.
+ (<100%=+)

---

Biological target: NMDAR2C expressing HEK cell membranes (Homo sapiens, UniProt Q05586+Q14957)
Construct: expressed in transfected cells; host or cells: HEK cells (membrane extract)
Experiment: NMDAR agonist assay, [3H]MK-801 binding, NMDAR2C
Format: biochemical
Conditions: read-out: NMDAR2C: % maximal [3H]MK-801 binding relative to 1 mM glycine
Each record here notes measured Emax.

// lookup Emax | system=NMDAR2C expressing HEK cell membranes (Homo sapiens, UniProt Q05586+Q14957) | key= "CC(C)CN1[C@@]2(CC[C@@]13CNC3=O)CNC2=O"
< 100%

---

Target: NMDAR2A expressing HEK cell membranes (Homo sapiens, UniProt Q05586+Q12879)
Construct: expressed in transfected cells; host or cells: HEK cells (membrane extract)
Assay: NMDAR agonist assay, [3H]MK-801 binding, NMDAR2A
Format: biochemical
Conditions: 50 μM glutamate; [3H]MK-801 binding; read-out: NMDAR2A: log EC50 (converted)
Recorded measurements of EC50, one per entry

// below: answered molecules
{"columns": ["molecule", "EC50"],
 "data": [
  ["CC(C)(C)OC(=O)N1C(C(N)=O)CCC12CN(OCc1ccccc1)C2=O (single isomer, unassigned) [BG]", "< 1 nM"],
  ["C[C@@H](O)[C@H](NC(=O)C1CCC2(CNC2=O)N1C)C(N)=O (single isomer, unassigned) [BD]", "< 1 nM"],
  ["CC(O)C(C(N)=O)N(C)CC1CCC2(CNC2=O)N1 (single isomer, unassigned) [CU]", "> 100 nM"]
]}

Now take the following molecule into account.
# lookup: EC50 of C[C@@H](O)[C@H](NC1CN(C(=O)OC(C)(C)C)C2(CNC2=O)C1)C(N)=O (single isomer, unassigned) [CH]
> 100 nM
